We begin with a simple list: items and their reported OD450 nm.
- TARGET: T1, human EGFRvIII-hFc protein (human, UniProt P00533 25-645)
- T1 construct: extracellular domain; made in HEK293 cells, purified on protein A; also called immunogen A; hFc-tagged EGFRvIII protein; not shown: human IgG Fc fragment (hFc) of the pCpC vector
- TEST PROTOCOL: ELISA, coated EGFRvIII-hFc, antibody 0.0001 nM
Please reply with the value in numeric form only.

Murine anti-63A10 (antibody, V domains shown, murine hybridoma antibody; also called 63A10A7) VH: QVQLQQSGAELARPGASVKMSCKASGYTFISFTMHWVKQRPGQGLEWIGYINPNSGYTKYNQKFKDKATLTAGQSSSTAYMQLSSLTSEDSAVYYCTRGGGRGFAYWGQGTLVTVSA VL: DILMTQSPSSMSVSLGDTVTITCHASQDINSNIGWLQQKPGKSFKALIYHGTNLEDGVPSRFSGSGSGADYSLTISSLESEDFADYYCVQYAQFPFTFGSGTKLEIK | 0.08
Murine anti-59G3 (antibody, V domains shown, murine hybridoma antibody; also called 59G3F12) VH: DVQLQESGPGLVKPSQSLSLTCSVTGYSITSGYYWHWIRQFPENKLEWMGYISYDGSNIYNPSLKNRISITRDTSKNQFFLKLNSVTTEDTATYYCAINSDYALDYWGQGTSVTVSS VL: QIVLTQSPAIMSASPGEKVTMTCSASSSVSYMYWYQQKPGSSPRLLIYDTSNLASGVPVRFSGSGSGTSYSLTISRMEAEDAATYYCQQWSSYSLTFGAGTKLELK | 0.08
Murine anti-7E5 (antibody, V domains shown, murine hybridoma antibody; also called 7E5-2A9; murine anti-7E5-2) VH: EIQLQQSGPELVKPGASVKVSCKASGYSFTDYNMYWVKQSHGKSLEWIGYVDPSNGGTNYNQKFKGKATLTVDKSSSTAFMHLNSLTSEDSAVYYCARGFFDYWGQGTTLTVSS VL: DIVMTQSPSSLTVTAGEKVTMSCKSSQSLLNSGNQKNYLTWYQQKPGQPPKLLIYWASNRESGVPDRFTGSGSGKDFTLTISSVQAEDLAVYYCQNDYRYPVTFGAGTKLELK | 0.15
Murine anti-46C4 (antibody, V domains shown, murine hybridoma antibody; also called 46C4A6) VH: EVHLQQSVAELVRPGASVKLSCTASGFNIKNTYMHWVKQRPEQGLEWIGRIDPANGNTKYAPKFQGKATITADTSSNTAYLQLSSLTSEDTAIYYCASDFDYWGQGTTLTVSS VL: DVLMTQTPLSLPVSLGDQVSISCRSSQSIVNSNGNTHLEWYLQKPGQSPKVLIYKVSKRFSGVPDRFSGSGSGTDFTLKISRVEAEDLGVYYCFQGSHVPYTFGGGTKLEIK | 0.08
Murine anti-75G7 (antibody, V domains shown, murine hybridoma antibody; also called 75G7C6) VH: EVQLQQSGPELVKPGASVKIPCKASGYTFTDYNMDWVKQSHGKSLEWIGDINPNNGDTIYNQKFKGKATLTVDKSSSTAYMELRSLTSEDTAVYYCARGDYDGYYPVYYAMDYWGQGTSVTVSS VL: ENVLTQSPAIMSASPGEKVTMTCRASSSVSSSYLHWYQQKSGASPKLWIFSTSNLAAGVPARFSGSGSGTSYSLTVSSVEAEDAATYYCQQYSGYPLTFGAGTKLELK | 0.07

// sample Murine anti-64F1 (antibody, V domains shown, murine hybridoma antibody; also called 64F1F8) VH: QVQLQQSGAELARPGASVKMSCKASGYTFSSYTMHWAKQRPGQGLEWIGYINPSSGYTKYNQKFKDKATLTADKSSSTAYMQLSSLTSEDSIVYYCARGGGRGFAYWGQGTLVTVSA VL: QIVLTQSPAIMSASPGERVTMTCSASSSVSYMYWYQQKPGSSPRLLIYDTSNLASGVPVRFSGSGSGTSYSLTISRVEAEDAATYYCQQWSSYSLTFGAGTKLELK , its OD450 nm was 0.08

// sample Murine anti-43H6 (antibody, V domains shown, murine hybridoma antibody; also called 43H6A1) VH: INAEYAGGPGLVKPSQSLSLTCTVTDYSITSDYAWNWIRQFPGNKLEWMGYISYSGNTNYNPSLKSRISITRDTSKNQFFLQLNSVTTEDTATYYCARLGRGFAYWGQGTLVTVSA VL: DILMTQSPSSMSVSLGDTVSITCHASQDINSNIGWLQQKPGTSFKGLIYHGRNLEDGVPSRFSGSGSGEDYSLTISSLESEDFADYYCVQYAHFPPTFGAGTKLELK , its OD450 nm was 0.09
